Molecular target: Cytochrome P450 3A4 (Homo sapiens) (UniProt P08684)
Sequence (P08684 whole entry, looked up): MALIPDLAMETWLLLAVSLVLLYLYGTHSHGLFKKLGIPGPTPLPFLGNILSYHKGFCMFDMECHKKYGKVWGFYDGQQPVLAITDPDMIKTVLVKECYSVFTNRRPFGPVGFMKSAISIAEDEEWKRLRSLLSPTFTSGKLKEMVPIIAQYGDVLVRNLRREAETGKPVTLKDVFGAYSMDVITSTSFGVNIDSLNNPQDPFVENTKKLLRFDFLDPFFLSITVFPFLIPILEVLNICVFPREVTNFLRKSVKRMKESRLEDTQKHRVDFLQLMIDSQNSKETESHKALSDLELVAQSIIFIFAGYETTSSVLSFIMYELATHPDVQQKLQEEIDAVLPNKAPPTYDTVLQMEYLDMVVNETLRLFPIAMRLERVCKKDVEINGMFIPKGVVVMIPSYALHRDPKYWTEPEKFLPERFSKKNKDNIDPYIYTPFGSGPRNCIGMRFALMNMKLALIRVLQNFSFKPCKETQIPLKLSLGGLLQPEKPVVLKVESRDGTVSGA
Experiment: qHTS Assay for Activators of Cytochrome P450 3A4 (AID 885); note: nearly all actives have a fitted effect of over 65% in size
Conditions: recombinant CYP3A4, Luciferin-PPXE luminescence, 60 min; series mostly up to 57.1 µM
Calls of active or inactive are those of the source. Calls come from the whole dose curve; as a rule, active = well fitted activation curve with a large enough effect; inconclusive = small, poorly fitted or top-dose-only effect; inactive = no such curve, though single readings can be large or run the other way.
measured quantity: activity change, positive = activation

Here's what some known entries look like.
{"compound": "CC1CC2C(C(O)C[C@]3(C)C2CC[C@]3(O)C(=O)CO)[C@]2(C)C=CC(=O)C=C12 (stereo partly specified)", "measurement target": "Cytochrome P450 3A4 (Homo sapiens) (UniProt P08684)", "activity change, positive = activation": "inactive"}
{"compound": "CCCCNC(=O)C(c1ccc(OCC(=O)OC)c(C(=O)OC)c1)N(CCC1=CCCCC1)C(=O)CCCCCN1C(=O)NC(c2ccc(-c3ccccc3)cc2)C(C(=O)OCc2ccccc2)=C1C (stereo unspecified)", "measurement target": "Cytochrome P450 3A4 (Homo sapiens) (UniProt P08684)", "activity change, positive = activation": "inactive"}
{"compound": "CCN1C(=O)[C@H]2[C@H]3[C@H](O)[C@H](O)C/C(=N/OC[C@@H](C)[C@H](OCc4ccccc4)C(C)C)[C@@H]3CC[C@@H]2C1=O", "measurement target": "Cytochrome P450 3A4 (Homo sapiens) (UniProt P08684)", "activity change, positive = activation": "-44.7% [at 11.4 µM] (inactive)"}
{"compound": "COC(=O)[C@@H]1C[C@H]2CC[C@H](O)C[C@H]2N1Cc1ccc(C(F)(F)F)cc1", "measurement target": "Cytochrome P450 3A4 (Homo sapiens) (UniProt P08684)", "activity change, positive = activation": "inactive"}
{"compound": "COc1ccc(O[C@H]2C=C[C@@H](c3ccccc3)O[C@H]2CO/N=C2/c3cc(OC)ccc3O[C@@H](c3cccc(OC)c3)[C@H]2O)cc1", "measurement target": "Cytochrome P450 3A4 (Homo sapiens) (UniProt P08684)", "activity change, positive = activation": "-100% [at 11.4 µM] (inactive)"}
{"compound": "C=C(C)C(O)/C=C/C=C/c1ccccc1 (stereo unspecified)", "measurement target": "Cytochrome P450 3A4 (Homo sapiens) (UniProt P08684)", "activity change, positive = activation": "-32.8% [at 11.4 µM] (inactive)"}
{"compound": "CO[C@@H]1COC(=O)[C@H](COCc2ccccc2)NC(=O)C/C=C\\[C@@H](C)[C@H](OC)COC(=O)[C@@H](C)NC(=O)C/C=C\\[C@H]1C", "measurement target": "Cytochrome P450 3A4 (Homo sapiens) (UniProt P08684)", "activity change, positive = activation": "-36.6% [at 11.4 µM] (inactive)"}
{"compound": "C[C@]1(C(=O)NCCN2CCOCC2)C=C[C@@H](Cc2ccccc2)N1C(=O)c1ccccc1", "measurement target": "Cytochrome P450 3A4 (Homo sapiens) (UniProt P08684)", "activity change, positive = activation": "inactive"}
{"compound": "CCCCCCC(=O)Cc1cc(OC)c(OC)cc1/C=C(/C(C)=O)C(=O)OC", "measurement target": "Cytochrome P450 3A4 (Homo sapiens) (UniProt P08684)", "activity change, positive = activation": "-68.2% [at 11.4 µM] (inactive)"}
{"compound": "CC(=O)OCC1OC(c2cc(C)cc(C)c2)C=CC1OC(C)=O (stereo unspecified)", "measurement target": "Cytochrome P450 3A4 (Homo sapiens) (UniProt P08684)", "activity change, positive = activation": "-86.4% [at 11.4 µM] (inactive)"}

Please find the next compound below.
Cytochrome P450 3A4 (Homo sapiens) (UniProt P08684) data for `COc1ccc(-c2oc3ccccc3c(=O)c2O)cc1` ; its activity change, positive = activation: inactive

###

# reported max response; entries follow
Experiment: qHTS assay for small molecule agonists of retinoid X receptor alpha signaling (AID 588544)
Conditions: HEK293T RXRa-UAS-bla, beta-lactamase reporter, 18 h; 530 nm emission
Results filed as inconclusive are left out.
Kindly write the number and append the unit.

Here are 2 compounds together with their reported answers.
{"compound": "CCCCCC1CCC(=O)O1 (centres undefined)", "max response": "-5.36%"}
{"compound": "CCCCC(CC)COC(C)=O (centres undefined)", "max response": "-20.2%"}

Recorded result, `C[Si](C)(C)N[Si](C)(C)C` , max response: -0.733%

// max response lookup, compound = C/C(=C\C(C)CC(C)CC(C)C)C1CC(=O)OC1=O (centres undefined) , result: 7.08%

The recorded max response for entry `C[Si](C)(Cl)[Si](C)(C)Cl` equals -0.475%

###

Assay: qHTS for Inhibitors of Plasmodium falciparum (CP250) proliferation (AID 504320);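 note: plate controls were DMSO vehicle for no effect and 0.29 µM artemisinin control for full effect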
Settings: P. falciparum CP250 in erythrocytes, SYBR Green DNA, 72 h; series mostly up to 6.7 µM
Records with an inconclusive call do not appear. Activity calls are given as the source filed them. The call rests on the fitted dose curve; in most records, active means well fitted inhibition curve with a large enough effect; inconclusive means small, poorly fitted or top-dose-only effect, or effect the other way; inactive means flat fitted curve, though single readings scatter.
measured quantity: outcome

{"compound": "CC1(OC(=O)CCc2ccccc2)C(=O)C=C2C=C(c3ccc(C#N)cc3)N(c3ccccc3)C=C2C1=O (stereo unspecified)", "outcome": "inactive"}
{"compound": "COC(=O)C1=C(C(=O)OC)[C@@H]2N(C)c3ccccc3[C@@]23C[C@@H](C(=O)OC)N(S(=O)(=O)c2cccs2)C3=N1", "outcome": "inactive"}
{"compound": "CCCCC1=CC2=CC(=O)C(C)(OC(=O)CC)C(=O)C2=CN1Cc1ccccc1 (stereo unspecified)", "outcome": "inactive"}
{"compound": "COc1cccc(CC(=O)N2CCc3nc(-c4ccc(OC)cc4C)c4c(c3C2)CO[C@@H](c2ccccc2)C4)c1", "outcome": "inactive"}
{"compound": "CCCCc1nc2c(c3c1C[C@H](C)OC3)CN(S(=O)(=O)c1c(C)noc1C)CC2", "outcome": "inactive"}

Proceeding to the next compound to report its outcome.
GET /value?item= `CCCCc1nc2c(c3c1C[C@H](C)OC3)CN(C(=O)Cc1cccc(OC)c1)CC2` &field=outcome returns inactive

###

Biological target: Cytochrome P450 2C19 (Homo sapiens) (UniProt P33261)
Sequence (P33261 whole entry, looked up): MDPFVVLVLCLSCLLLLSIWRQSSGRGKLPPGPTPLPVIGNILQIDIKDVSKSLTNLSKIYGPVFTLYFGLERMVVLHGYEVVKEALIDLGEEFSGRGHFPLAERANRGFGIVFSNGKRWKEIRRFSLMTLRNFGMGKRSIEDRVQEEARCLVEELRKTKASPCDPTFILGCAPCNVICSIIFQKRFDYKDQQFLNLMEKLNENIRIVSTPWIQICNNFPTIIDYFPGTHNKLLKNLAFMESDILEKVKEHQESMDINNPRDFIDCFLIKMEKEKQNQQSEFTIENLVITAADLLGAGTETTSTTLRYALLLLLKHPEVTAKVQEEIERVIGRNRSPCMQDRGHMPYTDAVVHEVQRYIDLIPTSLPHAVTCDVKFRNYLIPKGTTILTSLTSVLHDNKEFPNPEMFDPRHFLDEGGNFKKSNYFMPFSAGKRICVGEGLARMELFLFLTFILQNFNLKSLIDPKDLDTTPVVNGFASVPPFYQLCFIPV
Experiment: qHTS Assay for Inhibitors and Substrates of Cytochrome P450 2C19 (AID 899); note: nearly all actives have a fitted effect of over 60% in size
Settings: recombinant CYP2C19, luciferin-H EGE luminescence; series mostly up to 11.4 µM
Records with an inconclusive call do not appear. Calls of active or inactive are those of the source. The call rests on the fitted dose curve; in most records, active means well fitted inhibition curve with a large enough effect; inconclusive means small, poorly fitted or top-dose-only effect; inactive means no such curve, though single readings can be large or run the other way.
Log the outcome using a class from active, inactive

{"compound": "CO[C@@H]1COC(=O)[C@H](Cc2ccccc2)NC(=O)C/C=C\\[C@@H](C)[C@H](OC)COC(=O)[C@@H](C)NC(=O)C/C=C\\[C@H]1C", "measurement target": "Cytochrome P450 2C19 (Homo sapiens) (UniProt P33261)", "label class": "inactive"}
{"compound": "C=C(C)C(O)/C=C/c1ccccc1OC (stereo unspecified)", "measurement target": "Cytochrome P450 2C19 (Homo sapiens) (UniProt P33261)", "label class": "inactive"}
{"compound": "CC12C=C(/C=C/C=C/c3ccccc3)C(C)(C1)C(/C=C/c1ccccc1)CC2=O (stereo unspecified)", "measurement target": "Cytochrome P450 2C19 (Homo sapiens) (UniProt P33261)", "label class": "active"}
{"compound": "CC(=O)c1ccc(OC2C(O)COC2/C=C/c2ccc(Cl)cc2)cc1 (stereo unspecified)", "measurement target": "Cytochrome P450 2C19 (Homo sapiens) (UniProt P33261)", "label class": "inactive"}
{"compound": "C=CCOC(=O)C(C(C)=O)C(NC(=O)OC)c1cccc(C)c1 (stereo unspecified)", "measurement target": "Cytochrome P450 2C19 (Homo sapiens) (UniProt P33261)", "label class": "active"}

Next up:
# outcome recorded in this test, key = CCN1C(C)=C(C(=O)OC)C(c2ccccc2)N2C(=O)[C@](O)(C(=O)OC)CC(C(C)=O)=C12 (stereo partly specified)
inactive

###

Each entry below carries its reported max response.
Assay: qHTS assay for small molecule antagonists of peroxisome proliferator-activated receptor delta signaling (AID 588535);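 note: cells co-treated with a PPAR-delta agonist as stimulator during compound exposure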
Details: HEK293T PPARd-UAS-bla, beta-lactamase FRET ratio, 18 h; 460 nm channel
Inconclusive results are not listed.
Kindly answer with a numeric value in %, unit omitted.

{"compound": "O=C1CCCC/C=C/CCCCCCCCCO1", "max response, %": -0.124}

// switching to the query compound
The recorded max response for `NC(=O)Cc1cccc2ccccc12` is 36.8

###

Assay: qHTS for Inhibitors of Plasmodium falciparum (7G8) proliferation (AID 504316); note: nearly all actives have a fitted effect of over 65% in size
Settings: P. falciparum 7G8 in erythrocytes, SYBR Green DNA, 72 h; series mostly up to 6.7 µM
Description: Plasmodium falciparum is a virulent malarial parasite that kills 1-2 million people worldwide each year. Malaria not only inflicts tremendous suffering and morbidity on the human population, but has dramatically influenced the course of civilization with profound sociological and economic implications (Shah, S. 2010). […] Because mature erythrocytes lack DNA, only Plasmodium-derived DNA is detected. […]
Records with an inconclusive call do not appear. Activity calls are given as the source filed them. Calls come from the whole dose curve; as a rule, active = well fitted inhibition curve with a large enough effect; inconclusive = small, poorly fitted or top-dose-only effect; inactive = flat fitted curve, though single readings scatter.
Output constraint: value belongs to 1 = active, -1 = inactive

See these solved cases before continuing.
{"compound": "CCN1C(=O)[C@@H]2[C@H]3[C@H](O)[C@H](O)CC(=NO[C@@H](C)c4cc(-c5c(C)cc(C)cc5C)no4)[C@@H]3CC[C@H]2C1=O", "label class": -1}
{"compound": "C=CCN1c2ccccc2[C@]23C[C@@H](C(=O)OC)N(C(C)=O)C2=NC(C(=O)OC)=C(C(=O)OC)[C@H]13", "label class": -1}
{"compound": "COC(=O)C1=C(C(=O)OC)[C@@H]2Nc3ccccc3[C@@]23C[C@@H](C(=O)OC)N(S(=O)(=O)c2c(C)noc2C)C3=N1", "label class": -1}
{"compound": "CCCNC(=O)N1C2=NC(C(=O)OC)=C(C(=O)OC)[C@@H]3N(C)c4ccccc4[C@]23C[C@H]1C(=O)OC", "label class": -1}

Which outcome did this test record for the compound CCCCC1=CC2=CC(=O)C(C)(OC(=O)CC)C(=O)C2=CN1CCc1ccccn1 (centres undefined) ?
-1

Returns: the outcome recorded for `COC(=O)C1=C(C(=O)OC)[C@@H]2N(Cc3ccccc3)c3ccccc3[C@@]23C[C@@H](C(=O)OC)N(S(=O)(=O)c2ccc4c(c2)OCCN4C)C3=N1` in this assay.
1

What classification did COC(=O)CCC(=O)OC1(C)C(=O)C2=CN(CCCCO)C(c3ccc(OC)cc3)=CC2=C(Br)C1=O (centres undefined) end up with in this test?
-1

Returns: the outcome recorded for COC(=O)CCC(=O)OC1(C)C(=O)C2=CN(C(CO)CO)C(c3ccc(OC)cc3)=CC2=C(Br)C1=O (centres undefined) in this assay.
-1

// outcome(item) with item = `CCCCCCCc1cc2ccccc2c2c(C(=O)OC)c(-c3ccccc3)c(C(=O)OC)n12`
-1
